Values were extracted from patent US20230212222A1.

Assay system: T1, GPR39 (G protein-coupled receptor 39) (Homo sapiens (Human), UniProt O43194 1-453)
T1 sequence: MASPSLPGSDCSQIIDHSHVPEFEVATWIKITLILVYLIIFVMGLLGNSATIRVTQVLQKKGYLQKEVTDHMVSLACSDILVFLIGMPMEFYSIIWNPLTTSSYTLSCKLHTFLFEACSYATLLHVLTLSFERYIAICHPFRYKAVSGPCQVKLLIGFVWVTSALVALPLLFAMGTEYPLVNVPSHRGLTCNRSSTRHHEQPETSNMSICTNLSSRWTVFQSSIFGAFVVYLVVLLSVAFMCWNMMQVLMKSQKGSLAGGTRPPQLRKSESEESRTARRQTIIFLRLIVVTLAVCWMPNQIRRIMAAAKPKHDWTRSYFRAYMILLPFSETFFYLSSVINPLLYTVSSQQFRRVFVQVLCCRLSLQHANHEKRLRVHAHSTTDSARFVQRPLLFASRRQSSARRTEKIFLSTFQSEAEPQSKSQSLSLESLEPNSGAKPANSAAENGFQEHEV
Assay: cell-based or functional assay
Square brackets hold non-standard residues; d marks the D form. Ends that are not written are not given here. * marks the point of attachment. 1,3‑difluorobenzhydryl = His with a 1-((2,4-difluorophenyl)(phenyl)methyl) group on the imidazole (N1); Biotin = O=C1N[C@H]2[C@H](CS[C@H]2CCCCC(=O)*)N1; Bip = N[C@@H](Cc1ccc(-c2ccccc2)cc1)C(=O)O; dPhe(4-Cl) = N[C@H](Cc1ccc(Cl)cc1)C(=O)O; dPhe(4-Me) = Cc1ccc(C[C@@H](N)C(=O)O)cc1; Trt = c1ccc(C(c2ccccc2)(c2ccccc2)*)cc1; Benzhydryl = c1ccc(C(c2ccccc2)*)cc1; Octanoyl = CCCCCCCC(=O)*
Response field label takes 1 (yes) when EC50 (luciferase reporter) is strictly below 300 nM and 0 (no) in all other cases.

Previously resolved entries follow.
> print(dat)
                                     binder  assigned.label
1   His(Benzhydryl)-Lys(Octanoyl) [HKFY-79]          0 (no)
2           GSH(Trt)K(Octanoyl)FY [HKFY-37]          0 (no)
3  H(Trt)K(Octanoyl)[dPhe(4-Cl)]Y [HKFY-13]         1 (yes)
4           Lys(Octanoyl)-Phe-Tyr [HKFY-54]          0 (no)
5  Biotin-H(Trt)K(Octanoyl)[Bip]Y [HKFY-45]         1 (yes)

## Input Does this binder meet the criterion EC50 (luciferase reporter) < 300 nM? H(1,3‑difluorobenzhydryl)K(Octanoyl)[dPhe(4-Me)]Y [HKFY-32]
## Output 1 (yes)
